assay: Rodent pharmacokinetic study; format: in vivo; settings: Wistar, in vivo; Wister rat/Male, 15 mg/kg Per-Oral vs 5 mg/kg Intravenous
# bioavailability annotations

[
  {
    "molecule": "CNCC1CC2CC2N1c1cccnc1.Cl (centres unmarked)",
    "bioavailability, %": 105
  },
  {
    "molecule": "CNCC1CC2CC2N1c1cncc(Br)c1 (centres unmarked)",
    "bioavailability, %": 59
  }
]

====

test: Rodent pharmacokinetic study; type: in vivo; settings: Wistar, plasma; Wister rat/Male, 5 mg/kg, Intravenous
Below, each of the molecules is paired with its reported half-life value.
measure-name: half-life (h)

[
  {
    "molecule": "NCC1CC2CC2N1c1cncnc1.O=C(O)/C=C/C(=O)O (centres unmarked)",
    "unit-name": "h",
    "measured": 1.34
  },
  {
    "molecule": "CNCC1CC2CC2N1c1cncnc1.O=C(O)/C=C/C(=O)O (centres unmarked)",
    "unit-name": "h",
    "measured": 1.43
  },
  {
    "molecule": "CNCC1CC2CC2N1c1ccc(C(F)(F)F)nc1.O=C(O)/C=C/C(=O)O (centres unmarked)",
    "unit-name": "h",
    "measured": 6.92
  },
  {
    "molecule": "CN(C)CC1CC2CC2N1c1cncc(Br)c1.Cl (centres unmarked)",
    "unit-name": "h",
    "measured": 0.99
  },
  {
    "molecule": "NCC1CC2CC2N1C(=O)c1ccco1.O=C(O)C(O)C(O)C(=O)O (centres unmarked)",
    "unit-name": "h",
    "measured": 1.13
  }
]

====

test: Rodent pharmacokinetic study; format: in vivo; settings: Wistar, plasma; Wister rat/Male, 15 mg/kg, Per-Oral
measure-name: Tmax (min)

[
  {
    "compound": "CN(C)CC1CC2CC2N1c1cncc(Br)c1.Cl (stereo not shown)",
    "measure-name": "Tmax",
    "unit-name": "min",
    "measured": 15
  }
]

====

Reported half-life is given for each of the following compounds.
experiment: Rodent pharmacokinetic study; assay type: in vivo; conditions: Wistar, in vivo; Wister rat/Male, 5 mg/kg, Intravenous
Counter-ions that a name gives are not always drawn.
measure-name: half-life

[
  {
    "compound": "NCC1CC2CC2N1c1cncc(Cl)c1.O=C(O)/C=C/C(=O)O (stereo not shown)",
    "measure-name": "half-life",
    "measured": "1.43 h"
  },
  {
    "compound": "CNCC1CC2CC2N1c1cncc(Br)c1 (stereo not shown)",
    "measure-name": "half-life",
    "measured": "1.45 h"
  },
  {
    "compound": "CNCC1CC2CC2N1c1cccnc1.Cl (stereo not shown)",
    "measure-name": "half-life",
    "measured": "5.82 h"
  },
  {
    "compound": "NCC1CC2CC2N1c1cccnc1 (stereo not shown) [Example 18, fumarate]",
    "measure-name": "half-life",
    "measured": "1.43 h"
  }
]

====

Below is a list of entries, each paired with its recorded AUC(0-t) value.
experiment: Rodent pharmacokinetic study; format: in vivo; conditions: Wistar, in vivo; Wister rat/Male, 15 mg/kg, Per-Oral

[
  {
    "molecule": "CNCC1CC2CC2N1c1cncc(Br)c1 (centres unmarked)",
    "AUC(0-t) / ng·h/mL": 3880
  },
  {
    "molecule": "CNCC1CC2CC2N1c1cccnc1.Cl (centres unmarked)",
    "AUC(0-t) / ng·h/mL": 5280
  }
]
